Assign abundance fitness to each entry below.
B1: REST corepressor 3, residues 87 to 134; numbered along this chain, Q9P2K3 (parent)
chain: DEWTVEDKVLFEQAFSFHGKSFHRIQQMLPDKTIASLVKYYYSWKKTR

- Variants of: B1
- ASSAY OVERVIEW: abundance fitness (aPCA) (normalised: wild type 0, dead -1); higher = more abundant; growth selection in yeast, the domain comes from the species named
- CONDITIONS: Homo sapiens
// print number alone

Exercise: Name the recorded abundance fitness of the item DEWTVEDKVLFEQAFSFHGKSFHRIQAMLPDKTIASLVKYYYSWKKTR [Q27A] in your answer.
Key: 0.069

Exercise: Name the recorded abundance fitness of the item DEWTVEDKVLFEQAFSFHGKSFHRIQQMLPDKTIASLVKYYYSWKSTR [K46S] in your answer.
Key: -0.467

Exercise: Name the recorded abundance fitness of the item DEWTVEDKVLFEQAFSLHGKSFHRIQQMLPDKTIASLVKYYYSWKKTR [F17L] in your answer.
Key: -0.206

Exercise: Name the recorded abundance fitness of the item DEWTVEDKVLFEQAFSFHGKSFHRIQQMLPDKTIAKLVKYYYSWKKTR [S36K] in your answer.
Key: -0.627

Exercise: Name the recorded abundance fitness of the item DEWTVEDKVLFEQAFSFHGKSFHRIQQMLPDKQIASLVKYYYSWKKTR [T33Q] in your answer.
Key: -0.658

Exercise: Name the recorded abundance fitness of the item DEWTVEDKVLFEQAFSFHGKSFHRIQQMLPDKTMASLVKYYYSWKKTR [I34M] in your answer.
Key: -0.255

Exercise: Name the recorded abundance fitness of the item DEWTVEDKVLFEQAFSFHGKSFHRIQQMAPDKTIASLVKYYYSWKKTR [L29A] in your answer.
Key: -0.832

Exercise: Name the recorded abundance fitness of the item DEWTVEDKVLFEWAFSFHGKSFHRIQQMLPDKTIASLVKYYYSWKKTR [Q13W] in your answer.
Key: -0.742

Exercise: Name the recorded abundance fitness of the item DEWTVEDKVLFEQAFSFHGKSFHRIQQMLPDKTIASLVKYYYSWFKTR [K45F] in your answer.
Key: -0.493

Exercise: Name the recorded abundance fitness of the item DEWTVEDKVLFEQAFSFHGKSFHRIQQMLPDKTIASLVKYWYSWKKTR [Y41W] in your answer.
Key: -0.574

Exercise: Name the recorded abundance fitness of the item DEWTVEDKVLFEQAFSFHGKSFHRIQQMLPDKTIASLVKYYDSWKKTR [Y42D] in your answer.
Key: 0.252

Exercise: Name the recorded abundance fitness of the item DEWTVEDKVLFEQAFSFHGKSFHRIQQMLPDKTIASLLKYYYSWKKTR [V38L] in your answer.
Key: -0.123

Exercise: Name the recorded abundance fitness of the item DEWTVEDKVLFQQAFSFHGKSFHRIQQMLPDKTIASLVKYYYSWKKTR [E12Q] in your answer.
Key: -0.528

Exercise: Name the recorded abundance fitness of the item DEWTVEDKVLFLQAFSFHGKSFHRIQQMLPDKTIASLVKYYYSWKKTR [E12L] in your answer.
Key: -0.476

Exercise: Name the recorded abundance fitness of the item DEWTVEDKVLFEQAFSFHGRSFHRIQQMLPDKTIASLVKYYYSWKKTR [K20R] in your answer.
Key: -0.544

Exercise: Name the recorded abundance fitness of the item DEWTVEDKVLFEQAFSFHGKSFHRIQQMLPDSTIASLVKYYYSWKKTR [K32S] in your answer.
Key: -0.972

Exercise: Name the recorded abundance fitness of the item DEWTVEDKVLFEQAFSFHGKSFHRIQQYLPDKTIASLVKYYYSWKKTR [M28Y] in your answer.
Key: -0.635

Exercise: Name the recorded abundance fitness of the item DEWTVEDKVLFEQAFSFHGKSFYRIQQMLPDKTIASLVKYYYSWKKTR [H23Y] in your answer.
Key: -0.702

Exercise: Name the recorded abundance fitness of the item DEWTVEDKVLFEQAFSFHSKSFHRIQQMLPDKTIASLVKYYYSWKKTR [G19S] in your answer.
Key: -0.487

Exercise: Name the recorded abundance fitness of the item DEWTVEDKVLFEQAFSFHGKSFHRAQQMLPDKTIASLVKYYYSWKKTR [I25A] in your answer.
Key: -0.567

Exercise: Name the recorded abundance fitness of the item DEWTVEDKVLFEQAFSAHGKSFHRIQQMLPDKTIASLVKYYYSWKKTR [F17A] in your answer.
Key: -0.307

Exercise: Name the recorded abundance fitness of the item DEWTVEDKVLFEQAFSFHGKSFWRIQQMLPDKTIASLVKYYYSWKKTR [H23W] in your answer.
Key: -0.56

Exercise: Name the recorded abundance fitness of the item DEWTVEDKVLFEQAFSFHGKSFHRIQQMLPDITIASLVKYYYSWKKTR [K32I] in your answer.
Key: -0.978

Exercise: Name the recorded abundance fitness of the item DEWTVEDKVLFEQAFSFHGKSFDRIQQMLPDKTIASLVKYYYSWKKTR [H23D] in your answer.
Key: -0.517

Exercise: Name the recorded abundance fitness of the item DEWTVEDKVLFEQAFSFHGKSFHRIQQMLPWKTIASLVKYYYSWKKTR [D31W] in your answer.
Key: -0.539

Exercise: Name the recorded abundance fitness of the item DEWTVEDKVLFAQAFSFHGKSFHRIQQMLPDKTIASLVKYYYSWKKTR [E12A] in your answer.
Key: -0.582

Exercise: Name the recorded abundance fitness of the item DEVTVEDKVLFEQAFSFHGKSFHRIQQMLPDKTIASLVKYYYSWKKTR [W3V] in your answer.
Key: -0.677

Exercise: Name the recorded abundance fitness of the item DEWTVEDKVLFEQAFSFHGKSFHRIQQMLPDKTIASLVKYYMSWKKTR [Y42M] in your answer.
Key: 0.311

Exercise: Name the recorded abundance fitness of the item DEWTVEDKVLFEQAFSFHGKSFHRRQQMLPDKTIASLVKYYYSWKKTR [I25R] in your answer.
Key: -0.975

Exercise: Name the recorded abundance fitness of the item DEWTVEDKVLFEQAFSFHGKSFHRIQQMLPDKTIASLRKYYYSWKKTR [V38R] in your answer.
Key: -0.116

Exercise: Name the recorded abundance fitness of the item DEWTVEDKVLFEQAFSFHGKSFHRFQQMLPDKTIASLVKYYYSWKKTR [I25F] in your answer.
Key: -0.838

Exercise: Name the recorded abundance fitness of the item DEWTVEDKVLFEQAFSFHGKSFHRIQQMLPDVTIASLVKYYYSWKKTR [K32V] in your answer.
Key: -0.93

Exercise: Name the recorded abundance fitness of the item DEWTVEDKVLFEQAFSFHGKSFHRIQQMLPDKTIFSLVKYYYSWKKTR [A35F] in your answer.
Key: -0.098

Exercise: Name the recorded abundance fitness of the item DEWTVEDKVLFEQAFSFHGKSFHRIQQMLPAKTIASLVKYYYSWKKTR [D31A] in your answer.
Key: -0.429

Exercise: Name the recorded abundance fitness of the item DEWTVEDKVLFEQAFSFHGKSFHRIQQMLPNKTIASLVKYYYSWKKTR [D31N] in your answer.
Key: -0.337

Exercise: Name the recorded abundance fitness of the item DEWTQEDKVLFEQAFSFHGKSFHRIQQMLPDKTIASLVKYYYSWKKTR [V5Q] in your answer.
Key: -0.154

Exercise: Name the recorded abundance fitness of the item DEWTVEDKVLFEQAFSFHGKSFHRIQQMLPDKTIRSLVKYYYSWKKTR [A35R] in your answer.
Key: -0.016

Exercise: Name the recorded abundance fitness of the item DEWTVEDKVLFEQAFSFHGKSFHRIQQMLPDKTIAVLVKYYYSWKKTR [S36V] in your answer.
Key: -0.761

Exercise: Name the recorded abundance fitness of the item DEWTVEDKVLFEQAFSFHGKSFHRIQQMLPDRTIASLVKYYYSWKKTR [K32R] in your answer.
Key: -0.473

Exercise: Name the recorded abundance fitness of the item DEWTVEDKVLFECAFSFHGKSFHRIQQMLPDKTIASLVKYYYSWKKTR [Q13C] in your answer.
Key: -1.02

Exercise: Name the recorded abundance fitness of the item DEWTVEDKFLFEQAFSFHGKSFHRIQQMLPDKTIASLVKYYYSWKKTR [V9F] in your answer.
Key: -0.531

Exercise: Name the recorded abundance fitness of the item DEWTVEDKVLFEQAFSFHGKSFHRIQQMLPDKTIASLVKYYYSDKKTR [W44D] in your answer.
Key: 0.738

Exercise: Name the recorded abundance fitness of the item DEWTVEDKVLFEQAFSFHGKSFHRIQQMLPDKTIESLVKYYYSWKKTR [A35E] in your answer.
Key: 0.308

Exercise: Name the recorded abundance fitness of the item DEWTVEDKVLFEQAFSFHGKSFHRIQQMLPDKTIASLVKYYYSWKKPR [T47P] in your answer.
Key: -0.075

Exercise: Name the recorded abundance fitness of the item DEWTAEDKVLFEQAFSFHGKSFHRIQQMLPDKTIASLVKYYYSWKKTR [V5A] in your answer.
Key: -0.137

Exercise: Name the recorded abundance fitness of the item DEWTVELKVLFEQAFSFHGKSFHRIQQMLPDKTIASLVKYYYSWKKTR [D7L] in your answer.
Key: -0.796

Exercise: Name the recorded abundance fitness of the item DEWTVEDKVLFEQAFSFHGKSFHRIQQMLPDKTIASLVKYYYSWRKTR [K45R] in your answer.
Key: -0.087

Exercise: Name the recorded abundance fitness of the item DEWTVEDKRLFEQAFSFHGKSFHRIQQMLPDKTIASLVKYYYSWKKTR [V9R] in your answer.
Key: -0.167

Exercise: Name the recorded abundance fitness of the item DEWTVEDKVLFEQAFSFHGKSFHRILQMLPDKTIASLVKYYYSWKKTR [Q26L] in your answer.
Key: -0.648

Exercise: Name the recorded abundance fitness of the item DEWTVEDKVLFEQAFSFHGKSFHRIQQMLPDKTIASLVKYYYGWKKTR [S43G] in your answer.
Key: -0.154

Exercise: Name the recorded abundance fitness of the item DEWTVEDKVLFEQAFSFHGKSFHRIQQRLPDKTIASLVKYYYSWKKTR [M28R] in your answer.
Key: -0.618

Exercise: Name the recorded abundance fitness of the item DEWTVEDKVLFEQAFSFHGKSFHRIQQMLPDKTIASLVKYYYFWKKTR [S43F] in your answer.
Key: -0.577

Exercise: Name the recorded abundance fitness of the item DEWTVEDKVLFEKAFSFHGKSFHRIQQMLPDKTIASLVKYYYSWKKTR [Q13K] in your answer.
Key: -0.458

Exercise: Name the recorded abundance fitness of the item DEITVEDKVLFEQAFSFHGKSFHRIQQMLPDKTIASLVKYYYSWKKTR [W3I] in your answer.
Key: -0.465

Exercise: Name the recorded abundance fitness of the item DEWTVQDKVLFEQAFSFHGKSFHRIQQMLPDKTIASLVKYYYSWKKTR [E6Q] in your answer.
Key: 0.293

Exercise: Name the recorded abundance fitness of the item DEWTVEDKVLFEQAFSFHGKSFHRIQQTLPDKTIASLVKYYYSWKKTR [M28T] in your answer.
Key: -0.461

Exercise: Name the recorded abundance fitness of the item DEWTVEDKVLFEQAFSFHGKSFARIQQMLPDKTIASLVKYYYSWKKTR [H23A] in your answer.
Key: -0.164

Exercise: Name the recorded abundance fitness of the item DEWTVEDKVLFEQAFSFHGKSLHRIQQMLPDKTIASLVKYYYSWKKTR [F22L] in your answer.
Key: -0.693

Exercise: Name the recorded abundance fitness of the item DEWTVEDKVLFEQAFSFHGKMFHRIQQMLPDKTIASLVKYYYSWKKTR [S21M] in your answer.
Key: -0.344

Exercise: Name the recorded abundance fitness of the item DEWTVEDKVLFEQAFSFHGKSFHRIQQMLPDKTIPSLVKYYYSWKKTR [A35P] in your answer.
Key: -0.345

Exercise: Name the recorded abundance fitness of the item DEWTVEDKVLFEQAFSFHGKSFHRIQQMLPDKTIASLVKYYYSVKKTR [W44V] in your answer.
Key: -1

Exercise: Name the recorded abundance fitness of the item DEWTVEDKVLFEQAFSFHGKSFHRIQQMLPDKTIASLVKYYYSWIKTR [K45I] in your answer.
Key: -0.424

Exercise: Name the recorded abundance fitness of the item DEWTVEDKVLFEQAFSFHGKSFHRIQQMLPDKTIAGLVKYYYSWKKTR [S36G] in your answer.
Key: -0.167
